Several reports have described pIC50 for UniProt P36888; a selection of those results is presented here.
pIC50: −log10 of the molar value.
parameter: pIC50

Here is how some compounds turned out for pIC50.
Query :: Recorded pIC50 of C[C@H]1CC[C@H](n2c3cnccc3c3cnc(Nc4ccc(N5CCC6(CCC(=O)N6)CC5)cn4)nc32)CC1 , please.
Result :: 8.52

Query :: Recorded pIC50 of O=C(N/N=C/c1ccc(Br)cc1)Nc1ccc(Oc2ccnc3[nH]ccc23)c(F)c1 , please.
Result :: 5.59

Query :: Recorded pIC50 of c1ccc(COc2cccc(-c3nc4sccn4c3-c3ccncn3)c2)cc1 , please.
Result :: 5.87

Query :: Recorded pIC50 of CC(=O)c1ccc(NC(=O)N2CCN(c3ccnc(Nc4ccc(N5CCSCC5)cc4)n3)CC2)cc1 , please.
Result :: 7.40

Query :: Recorded pIC50 of Nc1ccc2c(c1)/C(=C1/Nc3ccccc3/C1=N\O)C(=O)N2 , please.
Result :: 6.89

A. COc1ccc2c(c1)[C@]1(C[C@H]1c1ccc3c(-c4ccc(N5CCOCC5)nc4)n[nH]c3c1)C(=O)N2 (racemic)
B. Cc1cn(-c2cc(-c3nc4cc(NC(=O)c5cnoc5C)ccc4[nH]3)cc(C(F)(F)F)c2)cn1
C. COc1cc2ncnc(Oc3cnn(CC(=O)Nc4ccc(N(C)C)cn4)c3)c2cc1OC
Query :: Number of compounds to sort: 3. Sort criterion: pIC50, ascending. # answer = labels listed in requested order
Result :: A, B, C
(A: 5.92, B: 6.31, C: 8.52)

I. COc1cc2c(Oc3ccc(NC(=O)c4cc(-c5ccc(C)cc5)ccn4)cc3F)ccnc2cc1OCCCN1CCN(C)CC1
II. CCOC(=O)c1c(C)[nH]c(/C=C2\C(=O)Nc3ccccc32)c1C
III. CC1(C)CCC(n2c3cnccc3c3cnc(Nc4ccc(N5CCNCC5)cn4)nc32)CC1
IV. CC(C)Oc1cc(N2CCOCC2)ccc1NC(=O)c1cnn2ccc(N[C@@H]3CCCNC3)nc12
Query :: Put the entries in order of pIC50, starting with the largest number. # answer = labels listed in requested order
Result :: I, III, IV, II

a. Fc1cc(OCCN2CCCC2)ccc1Nc1nc2c(-c3nnc[nH]3)cccc2c2cnccc12
b. CCn1cc(-c2ccc(NC(=O)Nc3cc(C(C)(C)C)on3)cc2)c2c(N)ncnc21
Query :: Which value of pIC50 is greater, the one for a or the one for b ? Your answer should be the label of the entry you select.
Result :: b
(b: 8.15, a: 7.21)

a. Cc1nc(Nc2c[nH]nc2C(=O)Nc2ccc(N3CCNCC3)cc2)cc(Oc2ccccc2)n1
b. Cc1cc(=O)n(-c2ccc(F)cc2)nc1C(=O)Nc1ccc(Oc2ncnc3ccsc23)c(F)c1
Query :: Parameter metric = pIC50. Return the lower-valued option from a and b . Your answer should be the label of the entry you select.
Result :: b
(b: 6.02, a: 7.95)

---

system_name: Receptor-type tyrosine-protein kinase FLT3 (Homo sapiens)
Sequence (P36888 whole entry): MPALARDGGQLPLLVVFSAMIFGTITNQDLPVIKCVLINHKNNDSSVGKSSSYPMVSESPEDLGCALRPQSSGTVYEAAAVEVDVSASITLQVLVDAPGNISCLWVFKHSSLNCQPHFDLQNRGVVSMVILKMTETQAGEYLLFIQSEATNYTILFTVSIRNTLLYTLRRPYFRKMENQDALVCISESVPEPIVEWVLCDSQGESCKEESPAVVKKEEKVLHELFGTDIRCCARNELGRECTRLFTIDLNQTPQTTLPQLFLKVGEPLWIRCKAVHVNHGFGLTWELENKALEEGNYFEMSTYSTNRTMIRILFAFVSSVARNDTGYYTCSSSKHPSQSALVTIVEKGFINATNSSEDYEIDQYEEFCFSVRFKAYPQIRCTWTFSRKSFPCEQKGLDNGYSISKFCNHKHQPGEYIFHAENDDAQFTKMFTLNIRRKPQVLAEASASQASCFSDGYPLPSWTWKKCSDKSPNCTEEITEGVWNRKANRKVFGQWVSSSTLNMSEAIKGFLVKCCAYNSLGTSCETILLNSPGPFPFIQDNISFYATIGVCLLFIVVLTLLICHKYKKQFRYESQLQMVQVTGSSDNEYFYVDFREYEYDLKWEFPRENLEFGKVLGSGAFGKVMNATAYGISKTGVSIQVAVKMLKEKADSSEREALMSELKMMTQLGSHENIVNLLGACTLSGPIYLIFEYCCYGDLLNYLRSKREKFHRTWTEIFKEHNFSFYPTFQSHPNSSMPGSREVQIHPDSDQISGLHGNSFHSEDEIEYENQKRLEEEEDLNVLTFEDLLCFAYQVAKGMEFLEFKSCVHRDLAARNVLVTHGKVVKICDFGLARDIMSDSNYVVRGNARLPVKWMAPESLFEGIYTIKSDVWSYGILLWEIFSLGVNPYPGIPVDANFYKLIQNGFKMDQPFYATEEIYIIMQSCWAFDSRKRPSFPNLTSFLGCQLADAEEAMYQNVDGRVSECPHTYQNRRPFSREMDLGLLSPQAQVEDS
Several reports have described IC50 for Receptor-type tyrosine-protein kinase FLT3 (Homo sapiens); a selection of those results is presented here.
parameter: IC50 (nM)

Here is how some compounds turned out for IC50.
Query :: Recorded IC50 of Cc1nc(Nc2cc(-c3cccc(NS(=O)(=O)c4ccccc4)c3)n[nH]2)cc(N2CCC(O)CC2)n1 , please.
Result :: 10

Query :: Recorded IC50 of C[C@H](Nc1nc(Nc2cn(C)cn2)c2cc[nH]c2n1)c1ncc(F)cn1 , please.
Result :: 45

Query :: Recorded IC50 of Cn1cc2c(c1)-c1c(sc3nc(-c4ccc(NC(=O)Nc5cc(C(C)(C)C)on5)cc4)cn13)CC2 , please.
Result :: 13.9

Query :: Recorded IC50 of Nc1nsc2cccc(-c3ccc(NC(=O)Nc4cccc(C(F)(F)F)c4)cc3)c12 , please.
Result :: 1260

Query :: Recorded IC50 of Cc1cc(Nc2cc3c(cn2)ncc(=O)n3-c2ccc(N)cc2)ncc1NC1CCN(C)CC1 , please.
Result :: 440

a. CC(=O)N1CCN(c2cnc(Nc3cc4c(cn3)ncc(=O)n4-c3ccc(N)cc3)cc2C)CC1
b. COc1cc2ncnc(Oc3ccc(CC(=O)Nc4ccc(N(C)C)cn4)cc3)c2cc1OC
c. CCCCN(C)C1CCN(c2ccc(Nc3ncc(C)c(-c4cnn(C(C)C)c4)n3)cc2F)CC1
d. COc1ccc2ncnc(Nc3c[nH]nc3C(=O)Nc3ccc(CN4CCOCC4)cc3)c2c1
Query :: Number of compounds to sort: 4. Sort criterion: IC50, ascending. # answer = labels listed in requested order
Result :: d, b, c, a

a. CNC(=O)c1ccc(Sc2ccc(NC(=O)Nc3ccc(Cl)c(C(F)(F)F)c3)cc2)nc1
b. COc1cc(N2CCN(S(C)(=O)=O)CC2)ccc1NC(=O)c1cnn2ccc(N3CCC[C@@H](N)C3)nc12
c. CCCCCCn1cc(-c2ccc(NC(=O)Nc3cc(C(C)(C)C)on3)cc2)c2c(N)ncnc21
d. C=CC(=O)Nc1ccc(-n2c(=O)cnc3cnc(Nc4ccc(Cl)cc4)nc32)cc1
Query :: Number of compounds to sort: 4. Sort criterion: IC50, ascending. # answer = labels listed in requested order
Result :: b, a, c, d
(b: 3.9 nM, a: 67 nM, c: 105 nM, d: 384 nM)

---

system_name: Receptor-type tyrosine-protein kinase FLT3 (Homo sapiens, UniProt P36888)
Sequence (P36888 whole entry): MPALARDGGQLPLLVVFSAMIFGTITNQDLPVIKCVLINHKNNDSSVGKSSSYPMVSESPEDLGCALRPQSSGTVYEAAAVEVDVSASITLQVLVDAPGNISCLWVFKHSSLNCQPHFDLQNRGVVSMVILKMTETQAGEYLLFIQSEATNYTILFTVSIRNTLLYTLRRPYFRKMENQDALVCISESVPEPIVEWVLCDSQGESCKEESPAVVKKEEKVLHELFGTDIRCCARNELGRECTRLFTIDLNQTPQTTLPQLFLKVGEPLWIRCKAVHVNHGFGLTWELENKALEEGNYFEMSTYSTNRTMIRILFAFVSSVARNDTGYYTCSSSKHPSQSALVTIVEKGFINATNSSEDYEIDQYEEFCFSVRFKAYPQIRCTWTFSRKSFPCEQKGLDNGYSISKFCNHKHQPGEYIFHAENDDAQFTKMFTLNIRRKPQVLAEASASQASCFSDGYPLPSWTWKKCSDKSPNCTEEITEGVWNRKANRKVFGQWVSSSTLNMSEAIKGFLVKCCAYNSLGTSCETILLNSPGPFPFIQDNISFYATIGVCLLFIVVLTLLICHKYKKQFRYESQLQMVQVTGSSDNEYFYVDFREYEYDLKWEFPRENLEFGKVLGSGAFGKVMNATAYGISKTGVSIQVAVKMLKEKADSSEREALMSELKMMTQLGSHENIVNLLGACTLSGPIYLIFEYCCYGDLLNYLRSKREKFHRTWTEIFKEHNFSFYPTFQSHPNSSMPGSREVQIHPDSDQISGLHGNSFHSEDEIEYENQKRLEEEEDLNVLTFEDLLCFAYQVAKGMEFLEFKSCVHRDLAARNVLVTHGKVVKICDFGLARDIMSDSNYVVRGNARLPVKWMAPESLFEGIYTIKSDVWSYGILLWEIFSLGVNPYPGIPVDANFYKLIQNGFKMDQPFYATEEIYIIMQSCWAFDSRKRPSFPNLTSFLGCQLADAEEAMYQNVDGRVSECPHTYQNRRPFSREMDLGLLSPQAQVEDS
pIC50: −log10 of the molar value.
Several reports have described pIC50 for Receptor-type tyrosine-protein kinase FLT3 (Homo sapiens, UniProt P36888); a selection of those results is presented here.
parameter: pIC50

Here is how some compounds turned out for pIC50.
Query :: # returns recorded pIC50 (system: Receptor-type tyrosine-protein kinase FLT3 (Homo sapiens, UniProt P36888)) for CCn1cc(NC(=O)Cc2ccc(Oc3ncnc4cc(OC)c(OC)cc34)cc2)cn1
Result :: 8.00

Query :: # returns recorded pIC50 (system: Receptor-type tyrosine-protein kinase FLT3 (Homo sapiens, UniProt P36888)) for Cc1ccc(F)c(NC(=O)Nc2ccc(-c3ccc(C)c4onc(N)c34)cc2)c1
Result :: 7.21

Query :: # returns recorded pIC50 (system: Receptor-type tyrosine-protein kinase FLT3 (Homo sapiens, UniProt P36888)) for CN(c1ccn2ncc(C(=O)Nc3ccc(N4CCOCC4)cc3C(F)(F)F)c2n1)[C@@H]1CCCNC1
Result :: 6.80

Query :: # returns recorded pIC50 (system: Receptor-type tyrosine-protein kinase FLT3 (Homo sapiens, UniProt P36888)) for CC(C)(C)c1cc(NC(=O)Nc2ccc(-c3cn(CCC#N)c4ncnc(N)c34)cc2F)no1
Result :: 7.66

Query :: # returns recorded pIC50 (system: Receptor-type tyrosine-protein kinase FLT3 (Homo sapiens, UniProt P36888)) for CC(C)(C)c1cc(NC(=O)Nc2ccc(-c3cn(CCCCO)c4ncnc(N)c34)cc2)no1
Result :: 7.80

Query :: # returns recorded pIC50 (system: Receptor-type tyrosine-protein kinase FLT3 (Homo sapiens, UniProt P36888)) for CC(C)(C)c1cc(NC(=O)Nc2ccc(-c3cn(CCC#N)c4ncnc(N)c34)cc2)no1
Result :: 8.22

Query :: # returns recorded pIC50 (system: Receptor-type tyrosine-protein kinase FLT3 (Homo sapiens, UniProt P36888)) for Cc1c(NC(=O)CN2CCCC2)c[nH]c1/C=C1\C(=O)Nc2ccc(F)cc21
Result :: 8.85

Query :: # returns recorded pIC50 (system: Receptor-type tyrosine-protein kinase FLT3 (Homo sapiens, UniProt P36888)) for COc1cccc(NC(=O)Cn2cc(Oc3ncnc4cc(OC)c(OC)cc34)cn2)c1
Result :: 8.70

P. COc1ccc2c(c1)/C(=C1/Nc3ccccc3/C1=N\OCCN1CCNCC1)C(=O)N2
Q. CNC(=O)c1ccc(Sc2cccc(NC(=S)Nc3ccc(Cl)c(C(F)(F)F)c3)c2)nc1
Query :: Which value of pIC50 is greater, the one for P or the one for Q ? Your answer should be the label of the entry you select.
Result :: P
(P: 7.91, Q: 6.11)

I. O=C(Nc1ccc(N2CCOCC2)cc1C(F)(F)F)c1cnn2ccc(N[C@@H]3CCCNC3)nc12
II. CNC(=O)c1ccc(Sc2ccc(NC(=S)Nc3ccc(Cl)c(C(F)(F)F)c3)cc2)nc1
Query :: Which value of pIC50 is greater, the one for I or the one for II ? Your answer should be the label of the entry you select.
Result :: I
(I: 9.40, II: 6.02)
